# assay-explanation: in vivo
# Set-up: species or system dogs
# test-context: dog, sc, 20 mg/kg
Catalogue of concentration at 1 h values
readout-kind: concentration at 1 h (ng/mL)

compound	readout-kind	scale-unit	data-value
CC1(C)S[C@@H]2[C@H](NC(=O)CSC[C@@H](N)C(=O)O)C(=O)N2[C@H]1C(=O)O	concentration at 1 h	ng/mL	22500
CC1(C)S[C@@H]2[C@H](NC(=O)[C@H](N)c3ccccc3)C(=O)N2[C@H]1C(=O)O [Ampicillin, ampicillin, reference compound]	concentration at 1 h	ng/mL	18000

---

# assay-explanation: in vivo
# Design: species or system rats
# test-context: rat, sc, 20 mg/kg

compound-structure	concentration at 0.5 h / ng/mL
CC1(C)S[C@@H]2[C@H](NC(=O)CSC[C@@H](N)C(=O)O)C(=O)N2[C@H]1C(=O)O	17000

---

Consider the following compounds and their measured concentration at 0.25 h readings.
# assay-explanation: in vivo
# Design: species or system dogs
# test-context: dog, sc, 20 mg/kg
# Excerpt: Plasma samples were adequately diluted with sterile water and assayed according to the usual agar diffusion method, using Bacillus subtilis ATCC 6633 as the test organism.
readout-kind: concentration at 0.25 h (ng/mL)

compound	scale-unit	data-value
CC1(C)S[C@@H]2[C@H](NC(=O)CSC[C@@H](N)C(=O)O)C(=O)N2[C@H]1C(=O)O [RIT D-2214]	ng/mL	18000
CC1(C)S[C@@H]2[C@H](NC(=O)[C@H](N)c3ccccc3)C(=O)N2[C@H]1C(=O)O [Ampicillin, ampicillin, reference compound]	ng/mL	13000

---

# assay-explanation: in vivo
# Set-up: species or system dogs
# test-context: dog, sc, 20 mg/kg
readout-kind: concentration at 0.5 h

compound	data-value
CC1(C)S[C@@H]2[C@H](NC(=O)[C@H](N)c3ccccc3)C(=O)N2[C@H]1C(=O)O [Ampicillin, ampicillin, reference compound]	18000 ng/mL
CC1(C)S[C@@H]2[C@H](NC(=O)CSC[C@@H](N)C(=O)O)C(=O)N2[C@H]1C(=O)O [RIT D-2214]	23000 ng/mL

---

# key: entry, value: concentration at 5 min
# assay-explanation: in vivo
# Parameters: species or system rats
# test-context: rat, sc, 20 mg/kg

compound	concentration at 5 min / ng/mL
CC1(C)S[C@@H]2[C@H](NC(=O)[C@H](N)c3ccccc3)C(=O)N2[C@H]1C(=O)O [Ampicillin, ampicillin, reference compound]	7000
CC1(C)S[C@@H]2[C@H](NC(=O)CSC[C@@H](N)C(=O)O)C(=O)N2[C@H]1C(=O)O	12000

---

# assay-explanation: in vivo
# Parameters: species or system dogs
# test-context: dog, sc, 20 mg/kg
Recorded measurements of concentration at 2 h, one per entry
readout-kind: concentration at 2 h (ng/mL)

compound	data-value
CC1(C)S[C@@H]2[C@H](NC(=O)CSC[C@@H](N)C(=O)O)C(=O)N2[C@H]1C(=O)O [RIT D-2214]	9000
CC1(C)S[C@@H]2[C@H](NC(=O)[C@H](N)c3ccccc3)C(=O)N2[C@H]1C(=O)O [Ampicillin, ampicillin, reference compound]	9000

---

concentration at 0.25 h values by entry
# assay-explanation: in vivo
# Set-up: species or system rats
# test-context: rat, sc, 20 mg/kg
readout-kind: concentration at 0.25 h (ng/mL)

compound	scale-unit	data-value
CC1(C)S[C@@H]2[C@H](NC(=O)[C@H](N)c3ccccc3)C(=O)N2[C@H]1C(=O)O [Ampicillin, ampicillin, reference compound]	ng/mL	13000
CC1(C)S[C@@H]2[C@H](NC(=O)CSC[C@@H](N)C(=O)O)C(=O)N2[C@H]1C(=O)O	ng/mL	23000

---

# assay-explanation: in vivo
# Set-up: species or system rats
# test-context: rat, sc, 20 mg/kg
readout-kind: concentration at 2 h (ng/mL)

molecule	scale-unit	data-value
CC1(C)S[C@@H]2[C@H](NC(=O)[C@H](N)c3ccccc3)C(=O)N2[C@H]1C(=O)O [Ampicillin, ampicillin, reference compound]	ng/mL	2500
CC1(C)S[C@@H]2[C@H](NC(=O)CSC[C@@H](N)C(=O)O)C(=O)N2[C@H]1C(=O)O [RIT D-2214]	ng/mL	7500

---

# assay-explanation: in vivo
# Set-up: species or system rats
# test-context: rat, sc, 20 mg/kg
readout-kind: concentration at 1 h (ng/mL)

molecule	readout-kind	scale-unit	data-value
CC1(C)S[C@@H]2[C@H](NC(=O)CSC[C@@H](N)C(=O)O)C(=O)N2[C@H]1C(=O)O	concentration at 1 h	ng/mL	12000
CC1(C)S[C@@H]2[C@H](NC(=O)[C@H](N)c3ccccc3)C(=O)N2[C@H]1C(=O)O [Ampicillin, ampicillin, reference compound]	concentration at 1 h	ng/mL	5000

---

# concentration at 0.5 h per record follows
# assay-explanation: in vivo
# Parameters: species or system mice
# test-context: mouse, sc, 20 mg/kg

compound	concentration at 0.5 h [ng/mL]
CC1(C)S[C@@H]2[C@H](NC(=O)CSC[C@@H](N)C(=O)O)C(=O)N2[C@H]1C(=O)O	10000
CC1(C)S[C@@H]2[C@H](NC(=O)[C@H](N)c3ccccc3)C(=O)N2[C@H]1C(=O)O [Ampicillin, ampicillin, reference compound]	3500
